MEASURED_PARAMETER: pIC50
Please keep in mind that pIC50 is minus log10 of the molar concentration; only the number is needed.

Write down measured pIC50 (Vascular endothelial growth factor receptor 1 (Homo sapiens)) for this molecule. `CCNC(=O)Nc1ccc(Oc2ncnc(N)c2/C=N/OC)cc1Cl`
5.35

---

Assay: Clearance in BALB/c mouse at 2 mg/kg, iv
Format: ADME, organism-based
Design: dose 2 mg/kg, route intravenous
Conditions: in vivo
MEASURED_PARAMETER: clearance (L/h/kg)
Numbers only here, please. The scale is L/h/kg.

Provide only the value of recorded clearance for `CCNC(=O)Nc1ccc(Oc2ncnc(N)c2/C=N/OC)cc1Cl`
0.336

---

Molecular target: Vascular endothelial growth factor receptor 2 (Homo sapiens)
Sequence (P35968 whole entry): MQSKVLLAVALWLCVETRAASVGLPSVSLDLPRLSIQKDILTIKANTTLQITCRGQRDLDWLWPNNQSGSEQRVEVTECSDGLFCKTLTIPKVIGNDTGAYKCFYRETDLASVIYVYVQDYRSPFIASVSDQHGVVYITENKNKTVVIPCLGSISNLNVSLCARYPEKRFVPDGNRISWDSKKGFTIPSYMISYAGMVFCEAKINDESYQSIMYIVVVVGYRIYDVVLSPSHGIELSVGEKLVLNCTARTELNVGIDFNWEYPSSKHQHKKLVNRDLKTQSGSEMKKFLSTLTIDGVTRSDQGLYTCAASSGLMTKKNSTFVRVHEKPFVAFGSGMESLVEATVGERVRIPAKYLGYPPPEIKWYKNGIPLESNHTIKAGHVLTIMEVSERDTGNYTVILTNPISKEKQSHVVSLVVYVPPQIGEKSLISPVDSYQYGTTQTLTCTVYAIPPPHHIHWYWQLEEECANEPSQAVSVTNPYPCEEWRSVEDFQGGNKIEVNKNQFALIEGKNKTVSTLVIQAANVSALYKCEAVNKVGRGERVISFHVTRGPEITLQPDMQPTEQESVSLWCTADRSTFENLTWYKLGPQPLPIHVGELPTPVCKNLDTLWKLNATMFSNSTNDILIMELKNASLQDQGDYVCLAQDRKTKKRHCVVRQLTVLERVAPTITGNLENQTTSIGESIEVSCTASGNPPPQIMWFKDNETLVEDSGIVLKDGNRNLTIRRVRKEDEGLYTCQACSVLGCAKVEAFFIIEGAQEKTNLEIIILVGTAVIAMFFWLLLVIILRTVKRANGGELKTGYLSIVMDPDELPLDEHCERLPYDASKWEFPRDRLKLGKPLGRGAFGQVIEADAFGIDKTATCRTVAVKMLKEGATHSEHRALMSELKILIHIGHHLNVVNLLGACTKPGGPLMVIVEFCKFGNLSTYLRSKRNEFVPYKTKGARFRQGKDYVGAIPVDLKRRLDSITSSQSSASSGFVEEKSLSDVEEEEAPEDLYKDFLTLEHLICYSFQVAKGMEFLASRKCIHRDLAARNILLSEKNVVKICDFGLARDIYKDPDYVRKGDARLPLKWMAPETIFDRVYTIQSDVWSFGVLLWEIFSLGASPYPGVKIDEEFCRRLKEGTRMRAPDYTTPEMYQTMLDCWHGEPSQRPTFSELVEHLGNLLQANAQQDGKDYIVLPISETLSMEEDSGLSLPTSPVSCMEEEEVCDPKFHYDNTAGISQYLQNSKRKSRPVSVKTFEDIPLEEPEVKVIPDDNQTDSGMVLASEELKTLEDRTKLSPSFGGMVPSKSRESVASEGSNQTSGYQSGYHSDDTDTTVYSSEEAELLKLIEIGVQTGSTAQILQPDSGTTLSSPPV
pIC50: −log10 of the molar value.
The threshold is inclusive: pIC50 of exactly 7 counts as Criterion met; values below receive Criterion not met.

# bool: pIC50 of `CNC(=O)Nc1ccc(Oc2ncnc(N)c2/C=N/OC)c(Br)c1` >= 7
Criterion not met

pIC50 >= 7 for `CO/N=C/c1c(N)ncnc1Oc1ccc(NC(=O)Nc2ccc(F)cc2)c(Cl)c1` ?
Criterion met

Hi team, for `CO/N=C/c1c(N)ncnc1Oc1ccc(NC(=O)Nc2nccs2)c(Cl)c1` , is the recorded pIC50 at or above 7?
Criterion met

hey, is pIC50 for this one >= 7? `CO/N=C/c1c(N)ncnc1Oc1ccc(NC(=O)NCCN(C)C)c(Cl)c1`
Criterion not met

Given the entry `CO/N=C/c1c(N)ncnc1Oc1ccc(NC(=O)Nc2cccnc2)c(Cl)c1` , answer whether its pIC50 meets or surpasses 7.
Criterion met

Can `CO/N=C/c1c(N)ncnc1Oc1ccc(NC(=O)Nc2ccccc2Cl)c(Cl)c1` be said to have pIC50 at or above 7?
Criterion met

Reported pIC50 at or above 7? `CO/N=C/c1c(N)ncnc1Oc1ccc(NC(=O)NCCCCN2CCCC2)c(Cl)c1`
Criterion not met

Please check the record `CO/N=C/c1c(N)ncnc1Oc1ccc(NC(=O)NCc2ccc(F)cc2F)c(Cl)c1` and state if its pIC50 is at or above 7.
Criterion met

Would you say `CO/N=C/c1c(N)ncnc1Oc1ccc(NC(=O)NC2CCCCC2)c(Cl)c1` shows pIC50 at minimum 7?
Criterion met

Check this compound for pIC50 at or above 7: `CO/N=C/c1c(N)ncnc1Oc1ccc(NC(=O)Nc2ccccc2F)c(Cl)c1`
Criterion met

Determine whether measured pIC50 meets or exceeds 7 for `CCNC(=O)Oc1ccc(Oc2ncnc(N)c2/C=N/OC)cc1`
Criterion not met

Can `CCNC(=O)Nc1ccc(Oc2ncnc(N)c2/C=N/OC)c(C)c1` be said to have pIC50 at or above 7?
Criterion not met

---

Assay: Cmax in BALB/c mouse at 2 mg/kg, iv
Format: ADME, organism-based
Set-up: dose 2 mg/kg, route intravenous
Conditions: in vivo
MEASURED_PARAMETER: Cmax (ng/mL)
Write it as a number; the unit ng/mL goes unstated.

Give me measured Cmax, please, for this compound: `CCNC(=O)Nc1ccc(Oc2ncnc(N)c2/C=N/OC)cc1Cl`
2990

---

MEASURED_PARAMETER: pIC50
Scale note: pIC50 = -log10(concentration in M).

Report pIC50 under test system Receptor-type tyrosine-protein kinase FLT3 (Homo sapiens) for `CCNC(=O)Nc1ccc(Oc2ncnc(N)c2/C=N/OC)cc1Cl` .
5.32

Where these numbers come from: ChEMBL document CHEMBL1681715
